// IC50 lookup, one value per entry
- Tested on: 8XTBD luciferase reporter
- assay.comment: YAP Reporter Assay
- Format: cell-based
- cond: Homo sapiens, HEK-293T; HEK293T cells stably transfected with 8XTBD luciferase reporter and pRLTK; 24-hr incubation; starting from 3 μM, 1:3 dilution, 10 points; read-out: Firefly Luciferase IC50
- Procedure: HEK293T cells stably transfected with 8XTBD luciferase reporter and pRLTK in 384-well plates were treated with the test compounds, starting from 3 μM (final concentration in assay plate), 1:3 dilution, and 10 points in quadruplicates. Post 24-hr incubation with compounds at 37° C. and 5% CO2, cells were lysed and 8XTBD-driven firefly luciferase and control TK-driven renilla luciferase activities were measured using Promega Dual-Luciferase Reporter Assay System. […]
quantity.kind: IC50

1. CNS(=O)(=O)c1ccc(Nc2ccc(Oc3ccccc3)cc2)c(-c2nnn(C)n2)c1	1000 to 3000 nM
2. CNS(=O)(=O)c1ccc(NC2CCCCC2)c(-c2cccc(N)n2)c1	100 to 1000 nM
3. CNS(=O)(=O)c1ccc(NC2CCCCC2)c(-c2nnn(C)n2)c1	≤ 100 nM
4. CNS(=O)(=O)c1ccc(Nc2cccc(F)c2F)c(-c2nnn(C)n2)c1	100 to 1000 nM
5. CNS(=O)(=O)c1ccc(Nc2cccc(Cl)c2)c(-c2cn(C)cn2)c1	≤ 100 nM
6. CNS(=O)(=O)c1ccc(NC2CCCCC2)c(-c2nnn(-c3cccnc3)n2)c1	≤ 100 nM
7. CNS(=O)(=O)c1ccc(NC2CCCCC2)c(-c2nnn(C3CN(C(C)C)C3)n2)c1	100 to 1000 nM
8. CNS(=O)(=O)c1ccc(NC2CCCCC2)c(-c2nnn(C3CC3)n2)c1	> 3000 nM
9. CNS(=O)(=O)c1ccc(NC2CCCCC2)c(-c2noc(C)n2)c1	≤ 100 nM
10. CCn1nnc(-c2cc(S(=O)(=O)NC)ccc2NC2CCCCC2)n1	≤ 100 nM
11. Cn1ccc(-c2cc(S(C)(=O)=O)ccc2NC2CCCCC2)n1	100 to 1000 nM
12. CNS(=O)(=O)c1ccc(NC2CCCCC2)c(-c2cn(C)nn2)c1	≤ 100 nM
13. CNS(=O)(=O)c1ccc(NC2CCCCC2)c(-c2nnn(C3CCCN(C(C)C)C3)n2)c1 (stereo not shown)	> 3000 nM
14. CNS(=O)(=O)c1ccc(Nc2ccc(Cl)c(C(F)(F)F)c2)c(-c2cn(C)cn2)c1	≤ 100 nM
15. CNS(=O)(=O)c1ccc(NC2CCCCC2)c(-c2nnn(C3CN(S(C)(=O)=O)C3)n2)c1	> 3000 nM
16. CNS(=O)(=O)c1ccc(NC2CCCCC2)c(-c2nnn(C3CCN(c4ccccc4)C3)n2)c1 (stereo not shown)	> 3000 nM
17. CNS(=O)(=O)c1ccc(Nc2ccc(OC(F)(F)F)cc2)c(-c2nnnn2C)c1	> 3000 nM
18. CNS(=O)(=O)c1ccc(Nc2ccccc2)c(-c2nnn(C)n2)c1	≤ 100 nM
19. CNS(=O)(=O)c1ccc(Nc2ccc(C(F)(F)F)c(Cl)c2)c(-c2cn(C)cn2)c1	≤ 100 nM
20. CNS(=O)(=O)c1ccc(NC2CCCCC2)c(-c2nnn(C3CCC3)n2)c1	≤ 100 nM
21. CNS(=O)(=O)c1ccc(NC2CCCCC2)c(-c2ncccc2C)c1	> 3000 nM
22. CNS(=O)(=O)c1ccc(NC2CCCCC2)c(-c2n[nH]c(C)n2)c1	100 to 1000 nM
23. CNS(=O)(=O)c1ccc(Nc2cc(F)ccc2F)c(-c2nnnn2C)c1	> 3000 nM
24. CNS(=O)(=O)c1ccc(NC2CCCCC2)c(-c2nnn(C3CCN(C(C)C)CC3)n2)c1	> 3000 nM
25. CNS(=O)(=O)c1ccc(NC2CCCCC2)c(-c2ncccc2OC)c1	1000 to 3000 nM
26. CNS(=O)(=O)c1ccc(NC2CCCCC2)c(-c2nnn(C3CCNCC3)n2)c1	> 3000 nM
27. CNS(=O)(=O)c1ccc(Nc2ccccc2C(F)(F)F)c(-c2nnnn2C)c1	> 3000 nM
28. CCn1cncc1-c1cc(S(=O)(=O)NC)ccc1NC1CCCCC1	> 3000 nM
29. CNS(=O)(=O)c1ccc(NC2CCCCC2)c(-c2ccccn2)c1	≤ 100 nM
30. CNS(=O)(=O)c1ccc(NC2CCCCC2)c(-c2nnn(Cc3ccc(F)cc3)n2)c1	100 to 1000 nM
31. CNS(=O)(=O)c1ccc(NC2CCCCC2)c(-c2cn(C)cn2)c1	≤ 100 nM
32. CNS(=O)(=O)c1ccc(NC2CCCCC2)c(-c2nnn(C3CN(c4ccccc4)C3)n2)c1	> 3000 nM
33. CCn1cnc(-c2cc(S(=O)(=O)NC)ccc2NC2CCCCC2)c1	≤ 100 nM
34. CNS(=O)(=O)c1ccc(N[C@H]2CC[C@H](C(F)(F)F)CC2)c(-c2cn(C)cn2)c1	≤ 100 nM
